Just for reference, paper PMC7571145 is where these values come from.

- Test system: MRC-5 fibroblasts
- TEST DETAILS: MTT cytotoxicity assay on non-cancerous MRC-5 fibroblasts
- Type: cell-based
- RUN PARAMETERS: 2.5 µM, 72 h, MTT, mean±SD, untreated control about 100
MEASURE: primary growth inhibitory screen, cell viability, MRC-5

Please report the recorded primary growth inhibitory screen, cell viability, MRC-5 for CC(=O)O[C@H]1CC[C@H]2[C@@H]3CCc4cc(O)c(-c5nn(-c6ccc(Cl)cc6)cc5C=O)cc4[C@H]3CC[C@]12C .
78.9±4.3

Note, next up: CC(=O)O[C@H]1CC[C@H]2[C@@H]3CCc4cc(O)c(-c5nn(-c6ccc(C)cc6)cc5C=O)cc4[C@H]3CC[C@]12C
100.4±5.1

Quick one: CC(=O)O[C@H]1CC[C@H]2[C@@H]3CCc4cc(O)c(-c5nn(-c6ccccc6)cc5C=O)cc4[C@H]3CC[C@]12C
≥ 100±5.7

// query: Cc1ccc(-n2cc(CO)c(-c3cc4c(cc3O)CCCC4)n2)cc1 [Compound 18b]
≥ 100±2.6

And Cc1ccc(-n2cc(C=O)c(-c3cc4c(cc3O)CC[C@@H]3[C@@H]4CC[C@]4(C)[C@@H](O)CC[C@@H]34)n2)cc1 ?
≥ 100±2.4

Now give it for CC(=O)O[C@H]1CC[C@H]2[C@@H]3CCc4cc(O)c(-c5nn(-c6ccc(Cl)cc6)cc5CO)cc4[C@H]3CC[C@]12C [Compound 10c] too.
96.4±10.1

Same question, CC(=O)c1cc2c(cc1O)CC[C@@H]1[C@@H]2CC[C@]2(C)[C@@H](O)CC[C@@H]12 this time
≥ 100±7

# repeat for OCc1cn(-c2ccc(Cl)cc2)nc1-c1cc2c(cc1O)CCCC2 [Compound 18c]
≥ 100±2.3

Queued: C[C@]12CC[C@@H]3c4cc(-c5nn(-c6ccccc6)cc5CO)c(O)cc4CC[C@H]3[C@@H]1CC[C@@H]2O [Compound 11a]
≥ 100±8.2

What do you get for C[C@]12CC[C@@H]3c4cc(-c5nn(-c6ccc(Cl)cc6)cc5C=O)c(O)cc4CC[C@H]3[C@@H]1CC[C@@H]2O ?
≥ 100±3.3

Can you check O=c1oc2cc3c(cc2c2nn(-c4ccccc4)cc12)CCCC3 [Compound 19a] next?
≥ 100±3.0

Also check Cc1ccc(-n2cc(CO)c(-c3cc4c(cc3O)CC[C@@H]3[C@@H]4CC[C@]4(C)[C@@H](O)CC[C@@H]34)n2)cc1 [Compound 11b]
≥ 100±2.2

What about C[C@]12CC[C@@H]3c4cc(-c5nn(-c6ccccc6)cc5C=O)c(O)cc4CC[C@H]3[C@@H]1CC[C@@H]2O ?
99.9±3.3

Would you mind doing O=Cc1cn(-c2ccc(Cl)cc2)nc1-c1cc2c(cc1O)CCCC2 [Compound 17c] as well?
≥ 100±4.0

* * *

Field: melting point. Provide a value for each of the compounds that follow.

What value of measured melting point is listed for C[C@]12CC[C@@H]3c4cc(-c5nn(-c6ccc(Cl)cc6)cc5C=O)c(O)cc4CC[C@H]3[C@@H]1CC[C@@H]2O [Compound 8c] ?
> 190 °C (dec.)

Repeat with Cc1ccc(-n2cc3c(=O)oc4cc5c(cc4c3n2)CCCC5)cc1 [Compound 19b]
224 to 226 °C

Likewise for Cc1ccc(-n2cc(CO)c(-c3cc4c(cc3O)CC[C@@H]3[C@@H]4CC[C@]4(C)[C@@H](O)CC[C@@H]34)n2)cc1 [Compound 11b] ?
201 to 203 °C

Now consider CC(=O)O[C@H]1CC[C@H]2[C@@H]3CCc4cc(O)c(-c5nn(-c6ccc(Cl)cc6)cc5CO)cc4[C@H]3CC[C@]12C [Compound 10c] .
288 to 290 °C

Subsequent entry: CC(=O)O[C@H]1CC[C@H]2[C@@H]3CCc4cc5oc(=O)c6cn(-c7ccc(Cl)cc7)nc6c5cc4[C@H]3CC[C@]12C [Compound 9c]
283 to 285 °C

Consider next the compound CC(=O)O[C@H]1CC[C@H]2[C@@H]3CCc4cc(O)c(-c5nn(-c6ccccc6)cc5CO)cc4[C@H]3CC[C@]12C [Compound 10a] in the same way.
257 to 259 °C

Note, next up: C[C@]12CC[C@@H]3c4cc(-c5nn(-c6ccc(Cl)cc6)cc5CO)c(O)cc4CC[C@H]3[C@@H]1CC[C@@H]2O [Compound 11c]
240 to 242 °C

* * *

Task for the reader: assign each of the following compounds its reported primary growth inhibitory screen, cell viability, MCF-7.
- System: MCF-7 cells
- TEST DETAILS: MTT cytotoxicity assay on MCF-7 cells
- Type: cell-based
- RUN PARAMETERS: 2.5 µM, 72 h, mean±SD, untreated control about 100
- Experimental: Cytotoxicity screens were performed to assess the in vitro anticancer activity of the synthesized A-ring-linked 2-pyrazoles of estradiol, the pyrazolocoumarin-estradiol hybrids, and their structurally simplified non-steroidal analogs on various cancerous cell lines such as MCF-7, PC-3, DU145, and HeLa and on non-cancerous MRC-5 fibroblasts. The 2-acetyl-phenol starting materials (4, 5, and 15) were also included for comparison. All compounds were applied in 2.5 µM concentration for 72 h. […]
// no unit, no text: just the number

Fill blank: measured primary growth inhibitory screen, cell viability, MCF-7 of the compound CC(=O)O[C@H]1CC[C@H]2[C@@H]3CCc4cc(O)c(-c5nn(-c6ccc(Cl)cc6)cc5C=O)cc4[C@H]3CC[C@]12C is ____.
57.4

Item: C[C@]12CC[C@@H]3c4cc(-c5nn(-c6ccccc6)cc5C=O)c(O)cc4CC[C@H]3[C@@H]1CC[C@@H]2O
100.9

Param item: CC(=O)O[C@H]1CC[C@H]2[C@@H]3CCc4cc(O)c(-c5nn(-c6ccccc6)cc5CO)cc4[C@H]3CC[C@]12C [Compound 10a]
73.5

// next record Cc1ccc(-n2cc(C=O)c(-c3cc4c(cc3O)CCCC4)n2)cc1 [Compound 17b]
93.2

* * *

- Test system: PC-3 cells
- TEST DETAILS: MTT cytotoxicity assay on PC-3 prostate cancer cells
- Type: cell-based
- RUN PARAMETERS: 2.5 µM, 72 h, mean±SD, untreated control about 100
MEASURE: primary growth inhibitory screen, cell viability, PC-3

API: value(readout=primary growth inhibitory screen, cell viability, PC-3, system=PC-3 cells) for record Cc1ccc(-n2cc3c(=O)oc4cc5c(cc4c3n2)CCCC5)cc1 [Compound 19b]
84.1±5.2

Another molecule to check: O=Cc1cn(-c2ccccc2)nc1-c1cc2c(cc1O)CCCC2 [Compound 17a]
71.0±20.9

Also check Cc1ccc(-n2cc(C=O)c(-c3cc4c(cc3O)CC[C@@H]3[C@@H]4CC[C@]4(C)[C@@H](O)CC[C@@H]34)n2)cc1 [Compound 8b]
67.8±3.8

Repeat with O=Cc1cn(-c2ccc(Cl)cc2)nc1-c1cc2c(cc1O)CCCC2 [Compound 17c]
61.9±2.8

Same question for CC(=O)O[C@H]1CC[C@H]2[C@@H]3CCc4cc(O)c(-c5nn(-c6ccccc6)cc5C=O)cc4[C@H]3CC[C@]12C [Compound 7a] please.
87.8±7.1

Similarly, CC(=O)O[C@H]1CC[C@H]2[C@@H]3CCc4cc(O)c(-c5nn(-c6ccccc6)cc5CO)cc4[C@H]3CC[C@]12C [Compound 10a] ?
63.6±17.8

Next molecule: CC(=O)O[C@H]1CC[C@H]2[C@@H]3CCc4cc(O)c(C(C)=O)cc4[C@H]3CC[C@]12C [Compound 4]
88.5±6.5

Follow-up item: CC(=O)O[C@H]1CC[C@H]2[C@@H]3CCc4cc5oc(=O)c6cn(-c7ccc(C)cc7)nc6c5cc4[C@H]3CC[C@]12C [Compound 9b]
86.2±2.4

Likewise for CC(=O)O[C@H]1CC[C@H]2[C@@H]3CCc4cc(O)c(-c5nn(-c6ccc(Cl)cc6)cc5CO)cc4[C@H]3CC[C@]12C [Compound 10c] ?
81.6±6.8

And for CC(=O)O[C@H]1CC[C@H]2[C@@H]3CCc4cc5oc(=O)c6cn(-c7ccccc7)nc6c5cc4[C@H]3CC[C@]12C [Compound 9a] ?
82.0±2.2

// next record C[C@]12CC[C@@H]3c4cc(-c5nn(-c6ccc(Cl)cc6)cc5C=O)c(O)cc4CC[C@H]3[C@@H]1CC[C@@H]2O [Compound 8c]
94.8±4.0

Cool, now CC(=O)O[C@H]1CC[C@H]2[C@@H]3CCc4cc(O)c(-c5nn(-c6ccc(Cl)cc6)cc5C=O)cc4[C@H]3CC[C@]12C [Compound 7c]
36.0±4.5

Would you mind doing Cc1ccc(-n2cc(CO)c(-c3cc4c(cc3O)CC[C@@H]3[C@@H]4CC[C@]4(C)[C@@H](O)CC[C@@H]34)n2)cc1 [Compound 11b] as well?
74.3±2.3

Then C[C@]12CC[C@@H]3c4cc(-c5nn(-c6ccc(Cl)cc6)cc5CO)c(O)cc4CC[C@H]3[C@@H]1CC[C@@H]2O [Compound 11c] ?
87.1±3.8

And for CC(=O)c1cc2c(cc1O)CC[C@@H]1[C@@H]2CC[C@]2(C)[C@@H](O)CC[C@@H]12 [Compound 5] ?
79.0±3.8

Same again, this time with Cc1ccc(-n2cc(C=O)c(-c3cc4c(cc3O)CCCC4)n2)cc1 [Compound 17b]
≥ 100±3.0
